target: full-length human Tim3 on cells (CHO-K1 stably transfected with plasmid 15312_hTIM3-fl_pUC_Neo) (human, UniProt Q8TDQ0 22-301); assay: cell-based or functional assay
Property measured: IFN-gamma release in MLR at 10 µg/ml antibody, % of rec hu IL-2 (20 EU/ml) = 100% (%)

Binder	Result
Tim3_0026 (antibody, V domains shown) VH: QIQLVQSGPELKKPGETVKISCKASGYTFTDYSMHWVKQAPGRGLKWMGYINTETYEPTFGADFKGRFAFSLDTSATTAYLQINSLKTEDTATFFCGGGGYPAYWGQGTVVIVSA VL: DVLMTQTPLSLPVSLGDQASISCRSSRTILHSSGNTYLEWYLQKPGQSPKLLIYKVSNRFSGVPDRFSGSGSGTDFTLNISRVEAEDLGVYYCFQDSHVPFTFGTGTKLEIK	16
